Experiment: Inhibition of quorum sensing LasI synthase in Pseudomonas aeruginosa PAO1 harboring reporter plasmid lasB-gfp assessed as reduction in lasB expression measured every 15 mins for 12 hrs by GFP-fluorescence assay
Quantity Name: IC50 (nM)
Write it as a number; the unit nM goes unstated.

Which IC50 value is on record for CCOc1ccc2nc(SSc3nc4ccc(OCC)cc4s3)sc2c1 ? 45400

Which IC50 value is on record for Clc1ccc(SSc2nc3ccc(Cl)cc3s2)cc1 ? 3250

Which IC50 value is on record for CCOc1ccc2nc(SSc3ccc(Cl)cc3)sc2c1 ? 720

Which IC50 value is on record for C=CCSSc1nnc(N)s1 ? 2280

Which IC50 value is on record for C[S+]([O-])CCCN=C=S (stereo not drawn) ? 31000

Which IC50 value is on record for C=CCSSc1nc2ccc(Cl)cc2o1 ? 4080

Which IC50 value is on record for CCCSSc1nc2ccccc2s1 ? 2200

Which IC50 value is on record for CCOC(=S)SCC#N ? 2140

----------
Tested on: Pseudomonas aeruginosa PAO1
Test: Inhibition of quorum sensing LasI synthase in Pseudomonas aeruginosa PAO1 harboring reporter plasmid lasB-gfp assessed as reduction in lasB expression measured every 15 mins for 12 hrs by GFP-fluorescence assay
Calls of active or inactive are those of the source. The calls are words filed in the database; no cut-off is given here.
Quantity Name: inhibition

# Molecule Smiles, Quantity Name, Recorded Result
data = [
    ("C=CCCSc1nc2ccccc2s1", "inhibition", "inactive"),
    ("CCOC(=S)SCC#N", "inhibition", "Dose-dependent effect"),
    ("C=CCSc1nc2ccccc2s1", "inhibition", "inactive"),
    ("C=CCSSc1nnc(N)s1", "inhibition", "Dose-dependent effect"),
    ("Clc1ccc(Sc2nc3ccccc3s2)cc1", "inhibition", "inactive"),
    ("CCCSc1nc2ccccc2s1", "inhibition", "inactive"),
]

Which inhibition value is on record for O=C(NS(=O)(=O)c1ccccc1)c1ccccc1 ? Dose-dependent effect

Which inhibition value is on record for C=CCSSc1nc2ccccc2s1 ? Dose-dependent effect

----------
Target: HTH-type quorum-sensing regulator RhlR (Pseudomonas aeruginosa (strain ATCC 15692 / PAO1 / 1C / PRS 101 / LMG12228))
Sequence (P54292 whole entry): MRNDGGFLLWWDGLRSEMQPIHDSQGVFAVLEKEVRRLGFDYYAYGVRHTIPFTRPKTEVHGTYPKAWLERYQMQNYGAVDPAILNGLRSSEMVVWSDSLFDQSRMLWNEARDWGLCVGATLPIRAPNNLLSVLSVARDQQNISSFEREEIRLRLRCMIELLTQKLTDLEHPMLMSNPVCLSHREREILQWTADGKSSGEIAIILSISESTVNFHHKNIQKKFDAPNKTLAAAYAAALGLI
Experiment: Inhibition of quorum sensing regulator protein RhlR in Pseudomonas aeruginosa PAO1 harboring reporter plasmid rhlA-gfp assessed as reduction in rhlA expression measured every 15 mins for 12 hrs by GFP-fluorescence assay
Field: pIC50. Provide a value for each of the molecules that follow.
Please express pIC50 as -log10 of the molar concentration.

Which pIC50 value is on record for C=CCSS/C=C/C[S+]([O-])CC=C (configuration not stated) ? 4.30

Which pIC50 value is on record for C=CCSSc1nc2ccccc2s1 ? 5.69

----------
Assay: Inhibition of quorum sensing LasI synthase in Pseudomonas aeruginosa PAO1 harboring reporter plasmid lasB-gfp assessed as reduction in lasB expression measured every 15 mins for 12 hrs by GFP-fluorescence assay
Field: pIC50. Provide a value for each of the compounds that follow.
Please express pIC50 as -log10 of the molar concentration.

Which pIC50 value is on record for C=CCSSc1nc2cc(OC)ccc2o1 ? 5.46

Which pIC50 value is on record for c1ccc2sc(SSc3nc4ccccc4s3)nc2c1 [BENZOTHIAZYL DISULFIDE] ? 4.84

Which pIC50 value is on record for Cc1ccc2nc(SSc3ccc(Cl)cc3)sc2c1 ? 6.17

Which pIC50 value is on record for C=CCSSc1nc2ccc(OCC)cc2s1 ? 5.45

----------
Assay: Inhibition of quorum sensing LasI synthase in Pseudomonas aeruginosa PAO1 harboring reporter plasmid lasB-gfp assessed as reduction in lasB expression measured every 15 mins for 12 hrs by GFP-fluorescence assay
Quantity Name: pIC50
Please express pIC50 as -log10 of the molar concentration.

Which pIC50 value is on record for FC(F)(F)c1ccc2nc(SSc3ccc(Cl)cc3)sc2c1 ? 6.24

Which pIC50 value is on record for COc1ccc(SSc2nc3ccccc3s2)cc1 ? 5.78

Which pIC50 value is on record for Clc1ccc(SSc2nc3ccccc3s2)cc1 ? 6.25

Which pIC50 value is on record for C=CCSSc1nc2ccccc2s1 ? 6.01

Which pIC50 value is on record for FC(F)(F)c1ccc2nc(SSc3nc4ccc(C(F)(F)F)cc4s3)sc2c1 ? 4.92

Which pIC50 value is on record for C=CCSSc1nc2ccc(C)cc2s1 ? 5.95

Which pIC50 value is on record for C=CCSS/C=C/C[S+]([O-])CC=C (centres undefined) ? 4.82

Which pIC50 value is on record for C=CCSSc1nc2ccc(C(F)(F)F)cc2s1 ? 5.87

Which pIC50 value is on record for C=CCSSc1nc2ccc(Cl)cc2s1 ? 6.11

Which pIC50 value is on record for Cc1ccc2nc(SSc3nc4ccc(C)cc4s3)sc2c1 ? 4.77

Which pIC50 value is on record for O=C(NS(=O)(=O)c1ccccc1)c1ccccc1 ? 4.44

Which pIC50 value is on record for c1ccc(SSc2nc3ccccc3s2)cc1 ? 5.87

Which pIC50 value is on record for c1ccc2sc(SSC3CCCCC3)nc2c1 ? 5.22

Which pIC50 value is on record for C=CCSSCc1ccccc1 ? 4.68
